Data provenance: patent US20230121313A1

# MEASUREMENT_PROTOCOL: Pharmacokinetics of intranasal esketamine 28, 56, 84 mg in healthy subjects (Example 9)
# RUN_PARAMETERS: both, human, plasma, inhaled or intranasal, 84 mg
QUANTITY_MEASURED: Cmax (ng/mL)

CN[C@]1(c2ccccc2Cl)CCCCC1=O = 103

###

# MEASUREMENT_PROTOCOL: Pharmacokinetics of esketamine nasal spray, data assembled from 14 Phase 1 studies (Example 10)
# RUN_PARAMETERS: human, plasma, inhaled or intranasal, 28 mg
QUANTITY_MEASURED: Cmax

CN[C@]1(c2ccccc2Cl)CCCCC1=O = 49.7 to 70.5 ng/mL

###

# MEASUREMENT_PROTOCOL: Pharmacokinetics of intranasal esketamine 28, 56, 84 mg in healthy subjects (Example 9)
# RUN_PARAMETERS: both, human, plasma, inhaled or intranasal, 84 mg, tmax, esketamine in plasma, healthy subjects, single intranasal 84 mg (Treatment C), median
QUANTITY_MEASURED: Tmax (min)

CN[C@]1(c2ccccc2Cl)CCCCC1=O = 49.8

###

# MEASUREMENT_PROTOCOL: Pharmacokinetics of intranasal esketamine 28, 56, 84 mg in healthy subjects (Example 9)
# RUN_PARAMETERS: both, human, plasma, inhaled or intranasal, 56 mg
QUANTITY_MEASURED: half-life (h)

CN[C@]1(c2ccccc2Cl)CCCCC1=O = 7.25

###

# MEASUREMENT_PROTOCOL: Pharmacokinetics of esketamine nasal spray, data assembled from 14 Phase 1 studies (Example 10)
# RUN_PARAMETERS: human, plasma, inhaled or intranasal, 56 mg
QUANTITY_MEASURED: AUC(0-t)

CN[C@]1(c2ccccc2Cl)CCCCC1=O = 216 to 317 ng·h/mL

###

# MEASUREMENT_PROTOCOL: Pharmacokinetics of esketamine nasal spray, data assembled from 14 Phase 1 studies (Example 10)
# RUN_PARAMETERS: human, plasma, inhaled or intranasal, 28 mg
QUANTITY_MEASURED: AUC(0-t)

CN[C@]1(c2ccccc2Cl)CCCCC1=O [esketamine] = 128 to 183 ng·h/mL

###

# MEASUREMENT_PROTOCOL: Pharmacokinetics of intranasal esketamine 28, 56, 84 mg in healthy subjects (Example 9)
# RUN_PARAMETERS: both, human, plasma, inhaled or intranasal, 28 mg
QUANTITY_MEASURED: AUC(0-inf) (ng·h/mL)

CN[C@]1(c2ccccc2Cl)CCCCC1=O [esketamine] = 136

###

# MEASUREMENT_PROTOCOL: Pharmacokinetics of esketamine nasal spray, data assembled from 14 Phase 1 studies (Example 10)
# RUN_PARAMETERS: human, plasma, inhaled or intranasal, 84 mg
QUANTITY_MEASURED: AUC(0-t)

CN[C@]1(c2ccccc2Cl)CCCCC1=O [esketamine] = 310 to 489 ng·h/mL

###

# MEASUREMENT_PROTOCOL: Pharmacokinetics of esketamine nasal spray, data assembled from 14 Phase 1 studies (Example 10)
# RUN_PARAMETERS: human, plasma, inhaled or intranasal, 28 mg, Tmax, young adult subjects, single dose nasal spray 28 mg, range of median values
QUANTITY_MEASURED: Tmax

CN[C@]1(c2ccccc2Cl)CCCCC1=O = 19.8 to 40.2 min

###

# MEASUREMENT_PROTOCOL: Solubility of esketamine HCl
# RUN_PARAMETERS: water, pH 4.5, aqueous buffer
Counter-ions that a name gives are not always drawn.
QUANTITY_MEASURED: solubility

CN[C@]1(c2ccccc2Cl)CCCCC1=O [esketamine HCl] = 180 mg/mL
